target or system: T1, Human B7H4 ECD (SV), splice variant, 10His_FLAG (human)
T1 construct: also called B7-H4-SV
experiment notes: Octet BLI, hIgG1-TM on Protein G (n = 4-7)
recorded metric: koff (s⁻¹)
Write it as a number; the unit s⁻¹ goes unstated.

1. ZY0EPQ-E02 human IgG1-TM (antibody, V domains shown) VH: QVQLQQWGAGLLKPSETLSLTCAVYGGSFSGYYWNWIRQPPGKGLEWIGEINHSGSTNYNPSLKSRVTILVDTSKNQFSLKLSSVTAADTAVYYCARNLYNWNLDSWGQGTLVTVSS VL: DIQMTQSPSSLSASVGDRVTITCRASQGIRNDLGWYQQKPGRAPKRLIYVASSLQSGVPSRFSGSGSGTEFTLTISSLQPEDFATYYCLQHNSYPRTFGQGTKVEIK	0.00229
2. ZY0EO5-E07 human IgG1-TM (antibody, V domains shown, also called ZY0E05-E07; E05-E07) VH: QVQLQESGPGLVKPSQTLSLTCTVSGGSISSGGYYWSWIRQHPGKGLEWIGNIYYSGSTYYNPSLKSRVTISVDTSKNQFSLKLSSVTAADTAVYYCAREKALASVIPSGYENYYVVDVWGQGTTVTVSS VL: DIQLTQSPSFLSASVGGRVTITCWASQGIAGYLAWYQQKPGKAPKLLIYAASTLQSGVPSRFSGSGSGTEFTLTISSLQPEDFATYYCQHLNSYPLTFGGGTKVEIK	0.000499

Lab note: measured koff of ZY0EOB-F05 human IgG1-TM (antibody, V domains shown) VH: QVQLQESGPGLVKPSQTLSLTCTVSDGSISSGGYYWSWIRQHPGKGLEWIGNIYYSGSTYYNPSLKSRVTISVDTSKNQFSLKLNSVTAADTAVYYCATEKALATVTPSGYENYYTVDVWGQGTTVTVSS VL: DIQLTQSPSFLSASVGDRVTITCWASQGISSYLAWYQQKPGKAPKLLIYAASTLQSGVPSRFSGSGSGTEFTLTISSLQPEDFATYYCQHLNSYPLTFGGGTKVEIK was 0.000584
